# TARGET_DESC: CaHse1
# METHOD_SUMMARY: SPOT peptide array binding signal intensity (averaged, normalized) (arbitrary units (background-subtracted, floor 0; scale differs between SH3 domains)); higher = stronger binding of the SH3 domain to the peptide
So I've got a bunch of binders here, and I need their SPOT peptide array binding signal intensity values.

Worked set:
[
  {
    "BINDER": "RAPPPVPKKPSSRIA",
    "DATA_VALUE": 1200
  },
  {
    "BINDER": "RKNRAPPQRPRFNRE",
    "DATA_VALUE": 89.8
  },
  {
    "BINDER": "PPPPPPPPPPLPQSL",
    "DATA_VALUE": 2.25
  },
  {
    "BINDER": "LSKRLPLRFPEHTSS",
    "DATA_VALUE": 81
  },
  {
    "BINDER": "GDHPKGPPPPPPPPD",
    "DATA_VALUE": 3.5
  },
  {
    "BINDER": "LKPPIGRPPKFPKSP",
    "DATA_VALUE": 1.5
  },
  {
    "BINDER": "LKRITSPPLPPRADS",
    "DATA_VALUE": 124
  },
  {
    "BINDER": "RPPRPPPKPLHLRTE",
    "DATA_VALUE": 1310
  }
]

Here are 7 binders. What values of SPOT peptide array binding signal intensity were reported for them?
1. KDKSRPPRPPPKPLH
2. PVLPPPRSPNRPTLS
3. IRMPSNPALPKKLLN
4. IVNKPLPPLPVAGSS
5. LLGRKRPVMERVVDI
6. KTRLRPAFIQQLWSS
7. APKHAPPPVPNETDN

Output:
1. 67
2. 1.5
3. 504
4. 1300
5. 54
6. 10.8
7. 1.75
